Reference for the values: paper PMC8919389

Experiment: Brain and plasma concentration after intraperitoneal administration in mice
Format: in vivo, C57BL/6J mice
Details: mouse, plasma; C57BL/6J mice, 10 mg/kg ip, 1 h, n = 3; read-out: plasma concn
metricName: concentration at 1 h (ng/mL)

>>> numericresult("COC(=O)N1CCC[C@H](NS(C)(=O)=O)[C@@H]1CO[C@H]1CC[C@@H](c2ccccc2)CC1")
288

###

Experiment: Brain and plasma concentration after intraperitoneal administration in mice
Format: in vivo, C57BL/6J mice
Details: mouse, brain/plasma; C57BL/6J mice, 10 mg/kg ip, 0.5 h; read-out: brain-to-plasma concn ratio
metricName: Kp at 0.5 h

>>> numericresult("COC(=O)N1CCC[C@H](NS(C)(=O)=O)[C@@H]1CO[C@H]1CC[C@@H](c2ccccc2)CC1 [compound 16]")
0.2

###

Target: multidrug resistance protein 1 (MDR-1) (Homo sapiens, UniProt P08183)
Experiment: Transcellular transport study using human MDR1-expressing LLC-PK1 cells
Details: 10 μM test compound, 2 h
MDR-1 ratio (directional transport ratio B to A/A to B) reference
metricName: MDR-1 ratio (directional transport ratio B to A/A to B)

>>> numericresult("CS(=O)(=O)N[C@H]1CCCN[C@H]1CO[C@H]1CC[C@@H](c2ccccc2)CC1")
0.8
>>> numericresult("CCOC(=O)N1CCC[C@H](NS(C)(=O)=O)[C@@H]1CO[C@H]1CC[C@@H](c2ccccc2)CC1")
0.7
>>> numericresult("CCNC(=O)N1CCC[C@H](NS(C)(=O)=O)[C@@H]1CO[C@H]1CC[C@@H](c2ccccc2)CC1")
4.8
>>> numericresult("COC(=O)N1CCC[C@H](NS(C)(=O)=O)[C@@H]1CO[C@H]1CC[C@@H](c2ccccc2)CC1")
0.8
>>> numericresult("CCC(=O)N1CCC[C@H](NS(C)(=O)=O)[C@@H]1CO[C@H]1CC[C@@H](c2ccccc2)CC1")
2.2

###

Experiment: Brain and plasma concentration after intraperitoneal administration in mice
Type: in vivo, C57BL/6J mice
Conditions: mouse, plasma; C57BL/6J mice, 10 mg/kg ip, 0.5 h, n = 3; read-out: plasma concn
metricName: concentration at 0.5 h (ng/mL)

>>> numericresult("COC(=O)N1CCC[C@H](NS(C)(=O)=O)[C@@H]1CO[C@H]1CC[C@@H](c2ccccc2)CC1")
880
